Numbers sourced from patent US20070055049A1.

- Test System: HLA-A3.2 (product of the A*0301 gene) (human)
pIC50: −log10 of the molar value.
Property Name: pIC50

Lab note: measured pIC50 of FLPSDFFPSV (modifications not checked) [HBc 18-27 peptide, P03146 18-27] was < 4.52
